Numbers sourced from patent US8119663B2.

Tested target: human protease activated receptor 1 (PAR1) (Homo sapiens)
Construct: the cell stably expresses the endogenous human PAR1 receptor and the endogenous purinergic receptor P2Y2; endogenous in cells
Sequence (P25116 22-425): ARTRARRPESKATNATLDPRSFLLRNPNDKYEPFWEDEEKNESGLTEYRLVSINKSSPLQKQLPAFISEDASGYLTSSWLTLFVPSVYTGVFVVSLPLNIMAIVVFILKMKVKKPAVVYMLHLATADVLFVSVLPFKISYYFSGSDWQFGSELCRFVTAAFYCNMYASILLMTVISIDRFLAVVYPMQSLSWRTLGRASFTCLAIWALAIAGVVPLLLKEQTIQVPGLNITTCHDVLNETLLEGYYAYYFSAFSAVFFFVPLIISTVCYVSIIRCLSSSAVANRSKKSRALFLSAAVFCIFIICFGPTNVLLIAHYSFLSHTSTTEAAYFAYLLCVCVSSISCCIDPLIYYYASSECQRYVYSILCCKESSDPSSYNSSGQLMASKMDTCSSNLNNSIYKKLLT
Experiment notes: Cellular functional in vitro test (aequorin luminescence, PAR1 test cell)
Recorded conditions: recombinant HEK293-derived cell line expressing aequorin; PAR1 agonist added at its EC50 5 minutes after test substance
Measured parameter: IC50 (nM)

CC1CN(C(=O)N2CC(c3ccc(C(F)(F)F)cc3)CC(c3nc(C4CC4)no3)C2)C1 (racemic); 28.8
Cc1ccc(C2CC(c3nc(C(C)C)no3)CN(C(=O)N3CCOCC3)C2)cc1C (racemic); 14
COCCc1noc(C2CC(c3ccc(OC(F)(F)F)cc3)CN(C(=O)N3CCC(O)C3)C2)n1 (centres unmarked); 23.8

(P) CN(C)Cc1nnc(C2CC(c3ccc(OC(F)(F)F)cc3)CN(C(=O)N3CCOCC3)C2)o1 (racemic)
(Q) CC(C)c1noc(C2CC(c3ccc(C(F)(F)F)cc3)CN(C(=O)N3CCC(C#N)CC3)C2)n1 (racemic)
Higher IC50 between P and Q ? Selection: enter the item's label.
Q
(Q: 9.73 nM, P: 4.16 nM)
